In this section we review reported growth inhibition values for a set of compounds.
- assay_details: OD615 S. cerevisiae growth inhibition, permissive medium, pilot counter-assay, permissive growth control for S. cerevisiae lifespan shortening project (AID 705)
- condition_set: OD615, 24 h, at 10 µM, active compounds read high
Field: numeric (%). Do not append units.

Below, each entry is followed by its recorded growth inhibition result.
1. COC(=O)c1ccc(C2c3c(oc4ccccc4c3=O)C(=O)N2CCCN2CCOCC2)cc1 (stereo not drawn) = -2.57
2. CCOc1ccc(C2c3c(oc4ccccc4c3=O)C(=O)N2c2ccccn2)cc1OC (stereo not drawn) = -15.4

Ask: // returns reported growth inhibition for input O=C(O)C1CCCCN1S(=O)(=O)c1ccc(Cl)s1 (stereo not drawn)
Reply: -2.17

Ask: // returns reported growth inhibition for input O=C(CN1C2=NCCCN2c2ccccc21)c1cccs1
Reply: 1.83

Ask: // returns reported growth inhibition for input CCOC(=O)CNC(=O)CSc1nc2sc(C)c(C)c2c(=O)n1C
Reply: -0.13

Ask: // returns reported growth inhibition for input O=C1Nc2ccc(S(=O)(=O)N3CCCCCC3)c3cccc1c23
Reply: -0.465

Ask: // returns reported growth inhibition for input CCOC(=O)C1C(=O)CC(C)(O)C(C(=O)OCC)C1c1cccs1 (stereo not drawn)
Reply: -3.39

----------
In this section we review reported RAM network inhibition values for a set of compounds.
- assay_details: RAM signaling pathway blockade in yeast – S. cerevisiae, Pdr1DBD-CYC8 efflux-inhibited sensitized strain, primary screen (AID 1298);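 note: 0% = DMSO untreated cells without growth and 100% = 10 µM 1-NA-PP1 full growth; higher means more yeast growth rescued from 5-FOA killing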
- condition_set: S. cerevisiae cbk1-as DSE1-URA3 strain, 5-FOA growth OD615, 2 d; at 50 µM; active compounds read high
Field: numeric (%). Do not append units.

1) CCOC(=O)c1nnn(-c2nonc2N)c1CN(C)Cc1ccccc1 = 4.2
2) CC1(C)Oc2ccc3ccc(=O)oc3c2/C(=C/N)C1=O = -0.57
3) COC1=CC(=O)OC12CCCCC2 = 2.11

Ask: // returns reported RAM network inhibition for input Cc1cc(CN2C(=O)c3ccccc3C2=O)cc(N2CCOCC2)c1
Reply: 1.4

Ask: // returns reported RAM network inhibition for input Cc1noc(C)c1S(=O)(=O)N(CC(=O)Nc1ccc2c(c1)OCO2)c1ccc(C(C)C)cc1
Reply: -0.06

Ask: // returns reported RAM network inhibition for input CC1CN(C2CC(C)(C)NC(C)(C)C2)CCC1=O (stereo not drawn)
Reply: 5.32

Ask: // returns reported RAM network inhibition for input CC(=O)N(CCCN(C)C)CCC(C)CCC=C(C)C (stereo not drawn)
Reply: 3.84

Ask: // returns reported RAM network inhibition for input Cc1ccccc1N1C(=O)C(Cl)=C(N2CCN(c3ccccc3)CC2)C1=O
Reply: 1.87

Ask: // returns reported RAM network inhibition for input COc1ccc(NC(=O)c2cc3ccccc3o2)cc1
Reply: -1.4

----------
- assay_details: inhibitors of the yeast RAM network, pilot screen, dse1pr::URA3 reporter, 5-FOA selection (AID 869);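 note: 0% = DMSO wells with no growth and 100% = 10 µM 1-NA-PP1 with full growth; RAM network block rescues cells from 5-FOA so hits raise OD615 growth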
- condition_set: S. cerevisiae dse1pr::URA3 5-FOA growth, OD615, 2 d; at 10 µM; active compounds read high; strain carries analog-sensitive mutant Cbk1 kinase
In this section we review reported inhibition values for a set of molecules.
Field: numeric (%). Do not append units.

Below, each entry is followed by its recorded inhibition result.
1. O=C1c2ccccc2C(O)N1Cc1ccccc1Cl (stereo not drawn) = 2.76
2. O=C1C(=O)N(CCO)C(c2ccccc2)/C1=C(\O)c1ccccc1 (stereo not drawn) = 1.29
3. CC(=O)Oc1cc2c(C(=O)NCc3ccncc3)c(C)oc2c2ccccc12 = 0.64
4. CCOC(=O)C1CCCN(Cc2nc(N)nc(Nc3ccccc3OC)n2)C1 (stereo not drawn) = 0.15
5. CCOC(=O)c1[nH]c(C)c(C(=O)NC(C)CC)c1C (stereo not drawn) = 1.21
6. Cn1cccc1Cc1nnc(SCC(=O)NCCc2ccccc2)n1-c1ccc(F)cc1 = 2.35
7. CCCCCn1c(CNC(=O)CCC)nc2ccccc21 = 2.5
8. COC(=O)C1=CN(CC2CCCO2)C=C(C(=O)OC)C1c1ccsc1 (stereo not drawn) = 0.125

Ask: // returns reported inhibition for input CC1CCc2nn(CC(=O)NC3CCCC3)cc2C1 (stereo not drawn)
Reply: 0.925

Ask: // returns reported inhibition for input CCOc1ccc(/C=C\C(C)=N\O)cc1
Reply: 0.065

Ask: // returns reported inhibition for input Cc1cc(C)cc(Nc2cc(C)nc3nc(C)nn23)c1
Reply: 1.87

Ask: // returns reported inhibition for input CCn1c(C2CC(=O)N(c3cc(C)cc(C)c3)C2)nc2ccccc21 (stereo not drawn)
Reply: 1.13

Ask: // returns reported inhibition for input CCn1c(C)nc2cc(S(=O)(=O)N3CCCC3)ccc21
Reply: 0.805

Ask: // returns reported inhibition for input CCCN(CCC)C(=O)COc1cc(=O)n(CC)c2ccccc12
Reply: 0.52

Ask: // returns reported inhibition for input COc1ccc(C2CC(=O)N3CN(c4ccc(C)c(Cl)c4)CSC3=C2C#N)cc1 (stereo not drawn)
Reply: 0.91

Ask: // returns reported inhibition for input Cn1c(NC(=O)CCc2ccccc2)cc(=O)n(C)c1=O
Reply: 0.855

Ask: // returns reported inhibition for input COC(=O)CN(c1ccc(C(C)C)cc1)S(=O)(=O)c1c(C)[nH]c(=O)[nH]c1=O
Reply: 2.21

Ask: // returns reported inhibition for input COCc1cc(C)nc(SCC(=O)Nc2cccc3cccnc23)c1C#N
Reply: 1.2

----------
- assay_details: RAM signaling pathway blockade in yeast – S. cerevisiae, Pdr1DBD-CYC8 efflux-inhibited sensitized strain, primary screen (AID 1298);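 note: 0% = DMSO untreated cells without growth and 100% = 10 µM 1-NA-PP1 full growth; higher means more yeast growth rescued from 5-FOA killing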
- condition_set: S. cerevisiae cbk1-as DSE1-URA3 strain, 5-FOA growth OD615, 2 d; at 50 µM; active compounds read high
measured_attribute: RAM network inhibition (%)
Field: numeric (%). Do not append units.

Below, each entry is followed by its recorded RAM network inhibition result.
1. Cc1cc(Nc2ccc3c(c2)OCCO3)n2nc(C)nc2n1 = 1.45
2. Nc1ccc(C(=O)c2ccc3c(c2)OCCO3)cc1N = 4.41

Ask: // returns reported RAM network inhibition for input O=C(O)CCCNS(=O)(=O)c1ccc(F)cc1
Reply: 0.11

Ask: // returns reported RAM network inhibition for input CCOC(=O)N1CCN(C(=O)c2cc3c(-c4ccc(Cl)cc4)nn(C)c3s2)CC1
Reply: 1.8

Ask: // returns reported RAM network inhibition for input CCC(C)(C(=O)NC1CCCCC1)N(Cc1ccco1)C(=O)CNC(=O)c1ccccc1 (stereo not given)
Reply: 6.49

----------
- assay_details: inhibitors of the yeast RAM network, pilot screen, dse1pr::URA3 reporter, 5-FOA selection (AID 869);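 note: 0% = DMSO wells with no growth and 100% = 10 µM 1-NA-PP1 with full growth; RAM network block rescues cells from 5-FOA so hits raise OD615 growth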
- condition_set: S. cerevisiae dse1pr::URA3 5-FOA growth, OD615, 2 d; at 10 µM; active compounds read high; strain carries analog-sensitive mutant Cbk1 kinase
measured_attribute: inhibition (%)
Field: numeric (%). Do not append units.

Below, each entry is followed by its recorded inhibition result.
1) CCOc1ccc(NC(=O)N(C2CCCCC2)C2CCN(C(C)=O)CC2)cc1 = 0.795
2) CCOC(=O)C1CCN(c2cc(=O)n(Cc3ccc(F)cc3)c(=O)[nH]2)CC1 = 3.19
3) COc1cccc(C(=O)Nc2ccc3nc(N4CCN(c5ncccn5)CC4)cc(C)c3c2)c1OC = 0.73
4) COc1cccc(-n2c(Cc3cc(=O)[nH]c(=O)[nH]3)nnc2SCC(=O)NC2CCCC2)c1 = 2.87
5) COCCOC(=O)C1=C(C)NC(=O)NC1C1CC=CCC1 (stereo not drawn) = 1.45

Ask: // returns reported inhibition for input CC1CN(c2nc3c(c(=O)[nH]c(=O)n3C)n2Cc2ccccc2F)CC(C)O1 (stereo not drawn)
Reply: 1.68

Ask: // returns reported inhibition for input CC1=C(NCCc2ccccc2)CCC1=O
Reply: 1.74

Ask: // returns reported inhibition for input Cn1c(=O)c2c(SC3CCCC3)nc(C3CC3)nc2n(C)c1=O
Reply: 2.54

----------
- assay_details: inhibitors of the yeast RAM network, pilot screen, dse1pr::URA3 reporter, 5-FOA selection (AID 869);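 note: 0% = DMSO wells with no growth and 100% = 10 µM 1-NA-PP1 with full growth; RAM network block rescues cells from 5-FOA so hits raise OD615 growth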
- condition_set: S. cerevisiae dse1pr::URA3 5-FOA growth, OD615, 2 d; at 10 µM; active compounds read high; strain carries analog-sensitive mutant Cbk1 kinase
measured_attribute: inhibition (%)
Field: numeric (%). Do not append units.

Ask: // returns reported inhibition for input CCN(CC)S(=O)(=O)c1ccc(Cl)c(C(=O)NC2CCCC2)c1
Reply: 0.145

Ask: // returns reported inhibition for input Fc1cccc(CSc2nc3ccncc3[nH]2)c1
Reply: 1.6

Ask: // returns reported inhibition for input CC1(C)CC(=O)c2c(Cc3ccccc3)n[nH]c2C1
Reply: 2.2

Ask: // returns reported inhibition for input CCOC(=O)c1nc2nc(C)cc(=O)n2[nH]1
Reply: 0.96
